Target: Protein kinase C (PKC)
Assay: Inhibitory activity against protein kinase C.
pIC50: −log10 of the molar value.

{"mol": "COc1ccc(C(=O)Nc2cc(Cl)cc3c4cc[nH]cc-4nc23)cc1", "pIC50": "< 4.60"}
{"mol": "COc1cccc(C(=O)Nc2cc(Cl)cc3c4cc[nH]cc-4nc23)c1", "pIC50": "< 4.60"}
{"mol": "COc1ccccc1C(=O)Nc1cc(Cl)cc2c3cc[nH]cc-3nc12", "pIC50": "< 4.60"}
{"mol": "Clc1cc2c3cc[nH]cc-3nc2c(Cl)c1OCC1CC1", "pIC50": "< 4.60"}
{"mol": "O=[N+]([O-])c1cc(Cl)cc2c1[nH]c1cnccc12", "pIC50": "< 4.60"}
